pIC50: −log10 of the molar value.
In what follows, each item is paired with its pIC50 for FLT3 (Homo sapiens).

compound | pIC50
CNC(=O)c1cncc(-c2cc([C@H]3CC[C@H](O)CC3)n3nc(N[C@@H](C)COC)ncc23)c1 [Compound 245] | 5.00 to 6.00
COCC(C)Nc1ncc2c(C3CCN(c4ccnc(C)n4)C3)cc(C3CCC(O)CC3)n2n1 (centres unmarked) [Compound 373] | 5.00 to 6.00
O[C@H]1CC[C@H](c2cc(-c3ccnc(N4CCOCC4)c3)c3cnc(N[C@H]4CCOC4)nn32)CC1 [Compound 362] | ≥ 7.00
COC[C@H](C)Nc1ncc2c(-c3cnn([C@@H]4CCC(C(=O)OC(C)(C)C)C4)c3)cc([C@H]3CC[C@H](O)CC3)n2n1 (some centres unmarked) [Compound 364] | ≥ 7.00

# evaluate next
Qu. # query: pIC50 | item COC[C@H](C)Nc1ncc2c(-c3cnn(C(C)(C)c4nnc(C)o4)c3)cc([C@H]3CC[C@H](O)CC3)n2n1 [Compound 440] | system: FLT3 (Homo sapiens)
Ans. 5.00 to 6.00

====

Biological target: UniProtKB P30530
Sequence (P30530 26-894): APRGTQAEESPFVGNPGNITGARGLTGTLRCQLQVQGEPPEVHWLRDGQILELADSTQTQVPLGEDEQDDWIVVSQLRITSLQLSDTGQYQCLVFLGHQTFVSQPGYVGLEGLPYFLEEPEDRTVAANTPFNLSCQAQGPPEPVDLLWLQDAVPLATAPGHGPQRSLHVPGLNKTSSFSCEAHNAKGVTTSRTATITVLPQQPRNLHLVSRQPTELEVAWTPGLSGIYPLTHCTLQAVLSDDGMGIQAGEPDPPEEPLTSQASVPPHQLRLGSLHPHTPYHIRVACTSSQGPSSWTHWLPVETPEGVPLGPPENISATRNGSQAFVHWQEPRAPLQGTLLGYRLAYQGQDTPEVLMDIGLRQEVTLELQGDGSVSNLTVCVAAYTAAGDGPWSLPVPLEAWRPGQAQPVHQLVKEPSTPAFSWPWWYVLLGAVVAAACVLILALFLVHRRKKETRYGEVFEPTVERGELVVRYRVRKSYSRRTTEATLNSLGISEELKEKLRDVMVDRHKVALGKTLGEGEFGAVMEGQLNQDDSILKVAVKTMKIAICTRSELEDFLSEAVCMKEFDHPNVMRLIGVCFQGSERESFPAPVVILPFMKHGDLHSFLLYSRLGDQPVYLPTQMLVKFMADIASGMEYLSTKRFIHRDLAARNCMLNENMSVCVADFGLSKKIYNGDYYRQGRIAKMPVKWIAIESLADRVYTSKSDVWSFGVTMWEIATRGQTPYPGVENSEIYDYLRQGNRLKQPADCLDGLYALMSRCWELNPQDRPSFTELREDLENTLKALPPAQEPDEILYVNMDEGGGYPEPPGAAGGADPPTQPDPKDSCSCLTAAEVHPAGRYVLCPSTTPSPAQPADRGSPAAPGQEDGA
pIC50: −log10 of the molar value.
test.readout: pIC50

compound | system.under.test | pIC50
COC[C@H](C)Nc1ncc2c(-c3cnn(C(F)F)c3)cc([C@H]3CC[C@H](O)CC3)n2n1 [Compound 207] | UniProtKB P30530 | ≥ 7.00

Qu. Lookup: pIC50 / UniProtKB P30530 / COC[C@H](C)Nc1ncc2c(-c3ccnc(N4CCOCC4=O)c3)cc([C@H]3CC[C@H](O)CC3)n2n1 [Compound 423]
Ans. ≥ 7.00

====

Target: AXL (Homo sapiens)
Sequence (P30530 26-894): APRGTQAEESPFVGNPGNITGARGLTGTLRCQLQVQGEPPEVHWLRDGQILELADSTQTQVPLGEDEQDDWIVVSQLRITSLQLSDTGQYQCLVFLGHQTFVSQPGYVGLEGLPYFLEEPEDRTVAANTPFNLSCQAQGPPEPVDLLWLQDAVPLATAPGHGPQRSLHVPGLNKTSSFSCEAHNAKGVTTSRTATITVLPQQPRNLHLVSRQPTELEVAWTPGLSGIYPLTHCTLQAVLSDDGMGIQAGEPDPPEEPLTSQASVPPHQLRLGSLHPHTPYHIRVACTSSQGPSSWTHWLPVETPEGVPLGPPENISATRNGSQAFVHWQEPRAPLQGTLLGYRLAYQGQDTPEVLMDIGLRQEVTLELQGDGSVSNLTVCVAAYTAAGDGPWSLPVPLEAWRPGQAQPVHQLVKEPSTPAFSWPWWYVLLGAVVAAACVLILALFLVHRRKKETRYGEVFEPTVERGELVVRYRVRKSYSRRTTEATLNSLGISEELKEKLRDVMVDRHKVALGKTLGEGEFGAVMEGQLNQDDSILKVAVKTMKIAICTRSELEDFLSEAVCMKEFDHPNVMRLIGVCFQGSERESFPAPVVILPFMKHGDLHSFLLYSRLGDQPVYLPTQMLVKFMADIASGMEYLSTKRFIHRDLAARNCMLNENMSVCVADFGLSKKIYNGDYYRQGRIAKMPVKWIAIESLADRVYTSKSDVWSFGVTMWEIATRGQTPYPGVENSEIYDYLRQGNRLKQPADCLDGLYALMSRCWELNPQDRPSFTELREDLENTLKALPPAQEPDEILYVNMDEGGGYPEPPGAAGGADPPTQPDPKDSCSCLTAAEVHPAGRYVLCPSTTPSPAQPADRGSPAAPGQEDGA
test.readout: IC50

Before answering, review these 5 worked examples.
compound | IC50
CNC(=O)c1cc(-c2cc([C@H]3CC[C@H](O)CC3)n3nc(N[C@@H](C)COC(F)F)ncc23)cc(C)n1 | 100 to 1000 nM
COC[C@H](C)Nc1ncc2c(-c3cnn(CC4CNC(=O)C4)c3)cc([C@H]3CC[C@H](O)CC3)n2n1 (some centres unmarked) | ≤ 100 nM
COC[C@H](C)Nc1ncc2c(C3=C[C@@H]4CC[C@H](C3)N4C)cc([C@H]3CC[C@H](O)CC3)n2n1 | ≤ 100 nM
COC[C@H](C)Nc1ncc2c(-c3cccc(CN4CCN(C)CC4)c3)cc([C@H]3CC[C@H](O)CC3)n2n1 | 100 to 1000 nM
C[C@H](Nc1ncc2c(-c3ccc(CN4CCOCC4)cc3)cc([C@H]3CC[C@H](O)CC3)n2n1)[C@H]1CCCO1 | 1000 to 10000 nM

Qu. Given the entry `COC[C@H](C)Nc1ncc2c(-c3cnn(C4COC4)c3)cc(C3CCC(=O)CC3)n2n1` , report its measured IC50.
Ans. 100 to 1000 nM

Qu. Subsequent entry: COCC(C)Nc1ncc2c(-c3ccc(C(C)N4CCOCC4)cc3)cc(C3CCC(O)CC3)n2n1 (centres unmarked)
Ans. ≤ 100 nM

Qu. Here is the next compound: `COC[C@H](C)Nc1ncc2c(-c3ccnc(N4CCOC5(COC5)C4)c3)cc([C@H]3CC[C@H](O)CC3)n2n1`
Ans. ≤ 100 nM
